Hi there, I'd appreciate the recorded t½ for every entry that follows.
target: T1, hRET.mFc (human); assay: SPR Biacore T200, mAb capture, 25 C
T1 construct: also called dimeric human RET
Answer with a number only, understood to be in min.

Q: Query t½ for H4H8056P (antibody, human IgG4, V domains shown, human IgG4 Fc (H4H prefix)) VH: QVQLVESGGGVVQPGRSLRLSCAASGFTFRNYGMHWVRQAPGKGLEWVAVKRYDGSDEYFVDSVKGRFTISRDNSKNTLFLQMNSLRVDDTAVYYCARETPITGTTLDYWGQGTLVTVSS VL: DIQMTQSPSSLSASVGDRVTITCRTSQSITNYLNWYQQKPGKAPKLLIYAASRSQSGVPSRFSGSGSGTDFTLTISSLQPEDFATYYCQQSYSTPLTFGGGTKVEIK
Ans: 42

Q: Please indicate t½ recorded for H4H8084P (antibody, human IgG4, V domains shown, human IgG4 Fc (H4H prefix)) VH: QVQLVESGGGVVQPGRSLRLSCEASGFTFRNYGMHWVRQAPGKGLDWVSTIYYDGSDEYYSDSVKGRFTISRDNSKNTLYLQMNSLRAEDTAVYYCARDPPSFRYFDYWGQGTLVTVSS VL: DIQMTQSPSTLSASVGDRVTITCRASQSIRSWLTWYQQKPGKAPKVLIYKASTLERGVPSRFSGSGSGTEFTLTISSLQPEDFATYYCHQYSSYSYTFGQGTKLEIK
Ans: 57

Q: Quick one: give measured t½ for H4H8058P (antibody, human IgG4, V domains shown, human IgG4 Fc (H4H prefix)) VH: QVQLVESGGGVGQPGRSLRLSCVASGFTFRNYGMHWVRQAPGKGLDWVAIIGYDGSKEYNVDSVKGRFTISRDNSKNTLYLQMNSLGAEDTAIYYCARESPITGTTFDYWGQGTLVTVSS VL: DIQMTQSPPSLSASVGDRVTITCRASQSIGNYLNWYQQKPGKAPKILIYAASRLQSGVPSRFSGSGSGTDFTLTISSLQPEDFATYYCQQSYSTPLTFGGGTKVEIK
Ans: 45
